Test system: male C57BL/6 J mice
Assay: Head-twitch response (HTR), magnetometer coil recording
Format: in vivo
Details: 0.3 mg/kg IP, 30 min
Outcome: T for HTR Counts (Mean ± SEM) of at least 10; F for anything lower.

[
  {
    "molecule": "C=C(C)CSc1cc(OC)c(CCN)cc1OC.Cl [Compound 2C-T-3]",
    "systemName": "male C57BL/6 J mice",
    "categoryLabel": "T"
  },
  {
    "molecule": "COc1cccc(CSc2cc(OC)c(CCN)cc2OC)c1.Cl [Compound 2C-T-33]",
    "systemName": "male C57BL/6 J mice",
    "categoryLabel": "F"
  },
  {
    "molecule": "COc1cc(SC)c(OC)cc1CC(C)N.Cl (centres unmarked) [ALEPH]",
    "systemName": "male C57BL/6 J mice",
    "categoryLabel": "T"
  },
  {
    "molecule": "COc1cc(SCCF)c(OC)cc1CCN.Cl [Compound 2C-T-21]",
    "systemName": "male C57BL/6 J mice",
    "categoryLabel": "F"
  },
  {
    "molecule": "COc1cc(SCCCF)c(OC)cc1CCN.Cl [Compound 2C-T-28]",
    "systemName": "male C57BL/6 J mice",
    "categoryLabel": "F"
  },
  {
    "molecule": "CCSc1cc(OC)c(CCN)cc1OC.Cl [Compound 2C-T-2]",
    "systemName": "male C57BL/6 J mice",
    "categoryLabel": "T"
  },
  {
    "molecule": "CCCSc1cc(OC)c(CCN)cc1OC.Cl [Compound 2C-T-7]",
    "systemName": "male C57BL/6 J mice",
    "categoryLabel": "T"
  },
  {
    "molecule": "CCCCSc1cc(OC)c(CCN)cc1OC.Cl [Compound 2C-T-19]",
    "systemName": "male C57BL/6 J mice",
    "categoryLabel": "T"
  }
]

====

Target: human 5-HT2B receptor (Homo sapiens)
Sequence (P41595 whole entry): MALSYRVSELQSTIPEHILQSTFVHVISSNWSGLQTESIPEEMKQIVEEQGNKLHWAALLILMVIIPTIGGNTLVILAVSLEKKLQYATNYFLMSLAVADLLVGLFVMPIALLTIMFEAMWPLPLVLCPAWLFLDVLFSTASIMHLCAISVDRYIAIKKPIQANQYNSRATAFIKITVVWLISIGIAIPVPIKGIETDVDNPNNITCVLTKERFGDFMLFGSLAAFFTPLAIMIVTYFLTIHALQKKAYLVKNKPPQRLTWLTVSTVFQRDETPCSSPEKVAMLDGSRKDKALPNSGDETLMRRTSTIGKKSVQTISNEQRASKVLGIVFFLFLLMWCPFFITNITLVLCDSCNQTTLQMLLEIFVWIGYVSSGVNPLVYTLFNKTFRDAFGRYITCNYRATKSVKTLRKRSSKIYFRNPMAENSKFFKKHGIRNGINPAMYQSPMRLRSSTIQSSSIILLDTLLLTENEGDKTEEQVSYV
Test: Agonist activity at the 5-HT2B receptor, FLIPR calcium flux in HEK 293 cells
pEC50: −log10 of the molar value.
Below, each entry is listed with its recorded pEC50.
measuredMetric: pEC50

[
  {
    "compound": "COc1cc(SCCF)c(OC)cc1CCN.Cl",
    "measuredMetric": "pEC50",
    "number": 6.99
  },
  {
    "compound": "COc1cc(SC)c(OC)cc1CC(C)N.Cl (centres unmarked)",
    "measuredMetric": "pEC50",
    "number": 7.72
  }
]

====

Below, each entry is listed with its recorded maximum number of head twitches (mean ± SEM).
System: male C57BL/6 J mice
Test: Head-twitch response (HTR), magnetometer coil recording
Assay type: in vivo
Settings: during the 30-min assessment period
measuredMetric: maximum number of head twitches (mean ± SEM)

[
  {
    "chemicalStructure": "CCCCSc1cc(OC)c(CCN)cc1OC.Cl",
    "number": 26.6
  },
  {
    "chemicalStructure": "CCCSc1cc(OC)c(CCN)cc1OC.Cl",
    "number": 70.2
  },
  {
    "chemicalStructure": "CCSc1cc(OC)c(CCN)cc1OC.Cl",
    "number": 65.2
  },
  {
    "chemicalStructure": "COc1cc(SC)c(OC)cc1CCN.Cl",
    "number": 97.2
  }
]
